From: the supplement of paper PMC10627819

fitness by entry:
- Test system: B. subtilis 168;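 note: OD595 on entry to stationary phase over no-drug wells; at most 1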
- TEST METHOD NOTES: fitness (endpoint OD595 vs no drug) (fraction); higher = more growth
- CONDITION SET: first compound 0.5 µg/mL; partner 2.5 µg/mL
Write the value as a bare number.

# example entries with known answers
CC[C@H]1OC(=O)[C@H](C)[C@@H](O[C@H]2C[C@@](C)(OC)[C@@H](O)[C@H](C)O2)[C@H](C)[C@@H](O[C@@H]2O[C@H](C)C[C@H](N(C)C)[C@H]2O)[C@](C)(O)C[C@@H](C)CN(C)[C@H](C)[C@@H](O)[C@]1(C)O [Azithromycin] + COc1cccc2c1C(=O)c1c(O)c3c(c(O)c1C2=O)C[C@@](O)(C(=O)CO)C[C@@H]3O[C@H]1C[C@H](N)[C@H](O)[C@H](C)O1 [Doxorubicin] = 0.767
CC[C@H]1OC(=O)[C@H](C)[C@@H](O[C@H]2C[C@@](C)(OC)[C@@H](O)[C@H](C)O2)[C@H](C)[C@@H](O[C@@H]2O[C@H](C)C[C@H](N(C)C)[C@H]2O)[C@](C)(O)C[C@@H](C)CN(C)[C@H](C)[C@@H](O)[C@]1(C)O [Azithromycin] + CN1C2=CC=CC=C2N=C3C1=CC=CC3=O [Pyocyanin] = 0.631
CC1=C(C(=O)O)N2C(=O)[C@@H](NC(=O)[C@H](N)c3ccccc3)[C@H]2SC1 [Cephalexin] + C[n+]1ccc(-c2cc[n+](C)cc2)cc1 [Paraquat] = 0.902

Now examine the next entry.
Given the entry CC1=C(C(=O)O)N2C(=O)[C@@H](NC(=O)[C@H](N)c3ccccc3)[C@H]2SC1 [Cephalexin] + CN1C2=CC=CC=C2N=C3C1=CC=CC3=O [Pyocyanin] , report its measured fitness.
0.823
